Molecular target: Muscarinic acetylcholine receptor M4 (Homo sapiens)
Sequence (P08173 whole entry): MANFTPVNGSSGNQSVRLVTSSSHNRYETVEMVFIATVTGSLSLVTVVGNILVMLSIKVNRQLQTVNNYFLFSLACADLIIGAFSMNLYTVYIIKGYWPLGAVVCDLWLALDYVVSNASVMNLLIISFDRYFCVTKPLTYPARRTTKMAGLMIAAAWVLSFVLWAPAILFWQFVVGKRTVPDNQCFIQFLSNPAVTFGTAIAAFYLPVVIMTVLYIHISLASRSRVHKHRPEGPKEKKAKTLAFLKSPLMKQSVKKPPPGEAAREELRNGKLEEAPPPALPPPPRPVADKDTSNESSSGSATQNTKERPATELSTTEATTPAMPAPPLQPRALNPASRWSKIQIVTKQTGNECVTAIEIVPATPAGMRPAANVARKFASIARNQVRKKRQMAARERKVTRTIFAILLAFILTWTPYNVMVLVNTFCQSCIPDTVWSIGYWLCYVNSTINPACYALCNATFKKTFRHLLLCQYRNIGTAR

| Compound | Measurement target | Ki [nM] |
| --- | --- | --- |
| CN(CCCCCCCCN(C)CCCCCCN(CC(=O)N1c2ccccc2C(=O)Nc2cccnc21)CC(=O)N1c2ccccc2C(=O)Nc2cccnc21)CCCCCCNCC(=O)N1c2ccccc2C(=O)Nc2cccnc21 [NSC_132947] | Muscarinic acetylcholine receptor M4 (Homo sapiens) | 6.41 |

// provenance: BindingDB's records for doi:10.1016/0922-4106(94)90075-2
